System: HCT-15 colon
Test: NCI-60 one-dose screen, 48 h (100 = growth as untreated, 0 = no growth, -100 = all killed)
Settings: 10 µM unless noted
Compounds without any hit were thinned out: in the full panel of roughly 83,000, 20% have a hit.
attributeMeasured: growth (%)
Numbers only, in %.

Before answering, review these 5 worked examples.
compound	attributeMeasured	resultUnit	measuredNumber
Cc1cc(O)c2cc3c(O)c(O)ccc3cc2c1	growth	%	113
CCOc1cc(/C=N\NC(=O)C[N+](C)(C)C)ccc1O	growth	%	103
C=C1C(=O)O[C@H]2[C@H]1CC/C(COC(=O)NCc1ccc(Cn3c(=O)sn(CCCl)c3=O)cc1)=C\CC[C@@]1(C)O[C@@H]21	growth	%	27.6
CCN(CC)Cc1cc(Nc2ccnc3ccc(OC)cc23)ccc1O	growth	%	32.4
O=C(N/N=C/c1ccc([N+](=O)[O-])o1)c1ccc(O)cc1	growth	%	42.9

Record growth for all entries; do not skip any.
1. CCOC(=O)C#Cc1c(C(=O)OCC)nnn1[C@@H]1O[C@H](COC(C)=O)[C@@H](OC(C)=O)[C@H]1OC(C)=O
2. CC(=O)O[C@H]1CC[C@]2(C)[C@H]3CC=C4[C@@H]5CC(C)(C)CC[C@]5(C(=O)OCC(COC(=O)C(Cl)Cl)(COC(=O)C(Cl)Cl)NC(=O)C(Cl)Cl)CC[C@@]4(C)[C@]3(C)CC[C@H]2C1(C)C
3. COc1cc(Cl)cc(-c2nn(C(=O)NCCN3CCOCC3)cc2-c2ccncc2)c1
4. CC(=O)Cc1ccccn1
5. CCCCCCCCCCCC1=NC(C)(C)CN1C(C)C
6. C=C(COC(C)=O)[C@H]1CC/C(C)=C/CC/C(C)=C/CC[C@@]2(C)O[C@H]2C1

**A:**
1: 44; 2: 46.7; 3: 45.7; 4: 98.6; 5: 11.8; 6: 96

Here are 2 compounds. What values of growth were reported for them?
1. C[C@H](NC(=O)c1snnc1C1CC1)c1c(F)cccc1Cl
2. COc1ccc2nc3ccccc3c(NCc3ccc(C)cc3)c2c1

**A:**
93.9
11.4

Value sought for every listed compound: growth.
1. O=c1c2cc(Cl)ccc2oc2ccc(OCCCCCN3CCCCC3)cc12
2. O=C1SCN(Cc2ccccc2)CN1Cc1ccccc1
3. N/C(=N\OC(=O)c1ccccc1)C(Cc1ccccc1)C(=O)NOC(=O)c1ccccc1 (stereo unspecified)
4. CCN(CC)CCCC(C)Nc1ccnc2ccc(Oc3ccccc3)cc12 (stereo unspecified)
5. Clc1ccc(-c2nc(-c3cccs3)no2)cc1
6. COc1ccc(CNc2c3ccccc3nc3ccc(OC)cc23)cc1
7. O=C(N/N=C\c1cc(Br)ccc1O)c1ccncc1

**A:**
1. -14.7
2. 98
3. 33.2
4. 49.6
5. 106
6. 5.34
7. 21.4

Dear reader, for each entry below, please note its growth.
1. COc1cc2c(c(OC)c1O)C(=O)C(OC)C(c1ccc(O)c(O)c1)O2 (stereo unspecified)
2. COc1cc(C2CC(c3ccc(C)cc3)=NN2C=O)ccc1Oc1ccnc2cc(Cl)ccc12 (stereo unspecified)

**A:**
1: 3.6; 2: 97.4

Please supply growth for each of the following items, keeping them in order.
1. NC(=O)N/N=C\c1ccc([N+](=O)[O-])o1
2. Cc1ccc(OC2=C(C#N)C(=N)N3C(=NN2)Sc2c(C)ccc(C)c23)cc1
3. O=C(Cc1ccc([N+](=O)[O-])cc1)Oc1ccccc1
4. COc1ccc(-c2cc(-c3cc4ccccc4oc3=O)n(-c3ccccc3)n2)cc1

**A:**
92.5
104
104
103

Hi there! I need growth for each item below, if you can.
1. COc1cc(CN2CCC(N3CCCC3=O)c3ccccc32)cc(OC)c1OC (stereo unspecified)
2. COc1nccc2c(Sc3ccccc3)nc(N)nc12

**A:**
1: 108; 2: 100

// batch mode: one growth value per listed entry
1. CC(C)(C)OC(=O)N1CCCN(CCNc2nccc(-c3c(-c4cccc(O)c4)nc4sccn34)n2)S1(=O)=O
2. CCN(CC)C(=O)O/N=C(/C)c1ccccc1
3. COc1ccc(Cl)cc1Nc1nc(C(F)(F)F)ccc1C(=O)NN

**A:**
[99.9, 110, 15.8]

Give growth for all compounds that follow.
1. Nc1cc(C(=O)O)cc(C(=O)O)c1
2. O=[N+]([O-])c1ccc(N/N=C\c2ccc(O)cc2O)nc1
3. O=C(/C=C/c1ccccc1)c1c[nH]c2ccccc2c1=O
4. CC(C)=CC[C@@H]1CC2(CC=C(C)C)C(=O)C(OC3(C(=O)c4ccccc4)C(=O)C4(CC=C(C)C)C[C@@H](CC=C(C)C)C(C)(C)C(CC=C(C)C)(C4=O)C3=O)(C(=O)c3ccccc3)C(=O)C(CC=C(C)C)(C2=O)C1(C)C (stereo partly specified)
5. NS(=O)(=O)c1ccc(CCn2c(SCC(=O)N/N=C/c3ccccc3O)nc3ccccc3c2=O)cc1
6. CN1C2CCC1/C(=C\c1ccc(F)cc1)C(=O)/C2=C/c1ccc(F)cc1
7. O=C(N/N=C/c1ccc([N+](=O)[O-])cc1)c1ccccc1Nc1ccnc(C(F)(F)F)c1

**A:**
[111, 29.8, 4.67, 5.15, 59.9, 38.7, 89.9]

###

System: BT-549 breast
Test: NCI-60 one-dose screen, 48 h (100 = growth as untreated, 0 = no growth, -100 = all killed)
Settings: 10 µM unless noted
Compounds without any hit were thinned out: in the full panel of roughly 83,000, 20% have a hit.
Provide the recorded growth for the entries that follow.
One number for each entry, in %.

Use these answered entries as a reference point.
compound	resultUnit	growth
COc1ccc(-c2cnc(-c3ccncc3-c3cccc(OC)c3)o2)cc1	%	37.1
O=C(CCl)Nc1ccc2c(c1)C(=O)c1ccccc1C2=O	%	-45.3
O=C(Nc1cccc(Cl)c1)Nc1ccccc1Cl	%	99.2

Would you mind giving growth for every compound in the list below?
1. Oc1ccc(-c2nc3ccccc3s2)cc1CN(Cc1ccccn1)Cc1ccccn1
2. COc1ccc2c(c1)C1=NN(C(=O)CO)[C@H](c3ccc(OC(F)(F)F)cc3)[C@@H]1CC2
3. CC(C)[C@@H]1C=C2CC[C@H]3[C@](C)(CN)CCC[C@]3(C)[C@H]2CC1

**A:**
18.5
127
90.7

Take each entry in turn and give its growth.
1. CCn1c(=O)c(C(=O)NCCCO)c(O)c2ccccc21
2. CC(=O)Nc1ccc(/C=N/N2CCCCCC2)cc1
3. Nc1c(C(=O)Nc2ccccc2)sc2nc3c(cc12)C(=O)CCC3
4. O=C(O)C(CCc1ccccc1)NCc1ccccc1 (stereo unspecified)
5. COc1ccc2c(c1)N(Cc1ccc(Cl)cc1)CCC2N1CCCC1=O (stereo unspecified)

**A:**
1: 150; 2: 91.5; 3: 65.7; 4: 47.4; 5: 16.1

###

I'd be grateful if you could share measured growth for these entries.
Test system: MOLT-4 leukemia
Assay: NCI-60 one-dose screen, 48 h (100 = growth as untreated, 0 = no growth, -100 = all killed)
Details: 10 µM unless noted
Compounds without any hit were thinned out: in the full panel of roughly 83,000, 20% have a hit. The source made the active and inactive calls. Rule for the calls: active = growth percent below 10; inactive = the rest.

Some compounds with recorded growth:
compound	result
C=CCOC(=O)C1=C(C)NC2=C(C(=O)CCC2)C1c1ccc(F)cc1 (configuration not stated)	93.6% (inactive)
CCN(CC)CCNC(=O)C(F)(F)C(F)(F)C(F)(F)F	109% (inactive)
COc1cnc2c(c1)C(=O)c1c-2n(CCCN2CCN(C)CC2)c(=O)c2cc(Cl)ccc12	-36.6% (active)
O=S1(=O)NCCN1CCNc1nccc(-c2c(-c3cccc(O)c3)nc3sccn23)n1	110% (inactive)
O=C(Nc1ccccc1)c1cc2ccccc2s1	83.3% (inactive)
CCS(=O)(=O)Nc1cccc(Nc2c3cccc(C)c3nc3c(C)cccc23)c1OC	-12.8% (active)
CC(=O)Cc1ccccn1	102% (inactive)
O=c1c2cc(Br)cc(Br)c2nc(-c2ccc(Cl)cc2)n1/N=C/c1cccc(F)c1	64.8% (inactive)

I would be grateful if you could provide growth for each of the following entries.
1. CN(C)CCNC(=O)n1cc(-c2ccncc2)c(-c2cc(O)cc(Cl)c2)n1
2. CCN(CC)c1ccc(/C=N/NC(=O)C[N+](C)(C)C)cc1
3. COc1ccc2nc(-c3ccc(-c4noc(-c5ccc(Cl)cc5)n4)cc3)[nH]c2c1
4. CCn1c(Cc2ccccc2Nc2c(Cl)cccc2Cl)nnc1SCC(=O)Nc1ccccc1C(F)(F)F
5. c1coc(CNc2c3ccccc3nc3ccccc23)c1
6. CC1CCCN(CCCCOc2ccc(-c3ccc(C#N)cc3)cc2)C1 (configuration not stated)

**A:**
86.4% (inactive)
22.1% (inactive)
79% (inactive)
70.2% (inactive)
27.2% (inactive)
83.4% (inactive)

Batch request: growth per item, same order as input.
1. COc1ccc(C2NC(=O)c3cc4c(cc3N2)OCO4)cc1 (configuration not stated)
2. O=C(O)c1cc2cc(OCc3ccccc3)ccc2[nH]1
3. Cc1ccc(Nc2cccc3ccccc23)cc1

**A:**
1. 16.5% (inactive)
2. 99.5% (inactive)
3. 77.3% (inactive)
